- System: Sonic hedgehog protein (Shh)
- PROTOCOL TEXT: small-molecule binders of Shh protein, primary screen, biochemical, small-molecule microarray, 635/667 nm fluorescence (AID 1151);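 note: Shh protein binding to compounds spotted on small-molecule microarray slides; score combines spot fluorescence intensity with signal-to-noise across triplicate slides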
- STATED CONDITIONS: small-molecule microarray binding, 635 nm fluorescence; higher = more signal
Measured composite z-score of individual entries
READOUT: composite z-score

C=CC(=C)C1=CCO[C@@H]1[C@H]1CCCN1S(=O)(=O)c1ccccc1[N+](=O)[O-] : 1.84
O=C1OCCC=C[C@H]2OC34C=CCN(c5ccc6ccccc6c5)C(=O)[C@H]3N(CCCCCO)C(=O)[C@@H]4C12 (some centres not stated) : 0.157
COCCOC(=O)N1C(=O)[C@@]2(c3cc(C#CCNC(N)=O)ccc31)[C@H](c1ccc(OCCO)cc1)N1[C@H](c3ccccc3)[C@H](c3ccccc3)OC(=O)[C@H]1[C@@H]2C(=O)N1CCc2cc(OC)c(OC)cc2C1 : 0.815
CN1C(=O)C2C(C1=O)C1C=C(CCCO)C2C(c2cccs2)N1C (configuration not stated) : -0.11
C=CCC(OC(C)=O)[C@@H]1[C@@H](N(Cc2cccc3ccccc23)C(=O)c2ccc(C)cc2)c2cc(OCCCO)ccc2N1C(=O)Cc1ccc(OC)cc1 (some centres not stated) : 0.562
COCCOC(=O)N1C(=O)[C@@]2(c3cc(C#CC4(O)CCCCCC4)ccc31)[C@H](C(=O)N1CCCCCCC1)[C@H]1C(=O)O[C@H](c3ccccc3)[C@H](c3ccccc3)N1[C@@H]2c1ccccc1OCCO : 1.37
CC(C)CNC(=O)[C@@]1(c2ccc([N+](=O)[O-])cc2)CC(=O)N(CC23CC4CC(CC(C4)C2)C3)[C@@H]1c1ccc(CO)cc1I : 2.02

----------
Measured composite z-score of individual entries
- SYSTEM: Alpha-bungarotoxin (Bungarus multicinctus)
- PROTOCOL TEXT: alpha-bungarotoxin binders on microarray, profiling panel, artefact control for SMM control protein annotation, biochemical, small-molecule microarray, Alexa647 label, 635/667 nm fluorescence (AID 1117)
- STATED CONDITIONS: alpha-BTX-A647 binding fluorescence, higher = more signal
READOUT: composite z-score

Cc1cc(C)c(C(O)C2C=CC3C(=O)N(C)C(=O)C3N2Nc2ccccc2)c(C)c1 (stereo not given) : 0.821
CC(=O)Nc1cc(Br)ccc1C(=O)O : 0.424
CCOC(=O)C1=CCC(C(C)(C)C)N(S(=O)(=O)c2ccc(C)cc2)C1 (stereo not given) : 1.5
O=C1O[C@H](c2ccccc2)[C@H](c2ccccc2)N2[C@H]1[C@@H](C(=O)N1CCN(c3ncccn3)CC1)[C@]1(C(=O)Nc3ccccc31)[C@H]2c1ccc(OCCO)cc1 : 0.4
COc1ccc(C(O)C2C=CC3C(=O)NC(=O)C3N2Nc2ccccn2)cc1OCc1ccccc1 (stereo not given) : 0.251

----------
Measured z-score of individual entries
- PROTOCOL TEXT: PSAC antagonists in infected red cells, primary screen, cell-based, P. falciparum Indochina, OD700, 2 h (AID 1155);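 note: lysis reports solute entry through the parasite surface anion channel PSAC; channel blockers reduce lysis of infected cells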
- STATED CONDITIONS: P. falciparum Indochina infected erythrocytes, osmotic lysis OD700; higher = more signal, called active from +8 up or from −8 down
READOUT: z-score

NC(=O)NCC#Cc1ccc2c(c1)[C@]1(C(=O)N2)[C@H](C(=O)NC[C@H](O)c2ccccc2)[C@H]2C(=O)O[C@H](c3ccccc3)[C@H](c3ccccc3)N2[C@@H]1c1ccc(O)cc1 : -0.0004
[N-]=[N+]=NCc1ccccc1[C@@H]1OC(c2ccc(OCCCO)cc2)=N[C@]1(Cc1ccccc1)C(=O)N1CCCCC1 : 4.66
COCCOC(=O)N1C(=O)[C@@]2(c3cc(C#CCNC(N)=O)ccc31)[C@H](C(=O)N1CCN(c3ncccn3)CC1)[C@H]1C(=O)O[C@H](c3ccccc3)[C@H](c3ccccc3)N1[C@@H]2c1ccccc1OCCO : 1.32
CN1C(=O)C2C(C1=O)C1C=C(CCCO)C2C(c2cccs2)N1C (stereo not drawn) : 0.326
C=CCC(OC(C)=O)[C@@H]1[C@@H](N(Cc2ccc(-c3ccccc3)cc2)C(=O)Cc2ccc(OC)cc2)c2cc(OCCCO)ccc2N1C(=O)c1ccc2ccccc2n1 (stereo partly drawn) : 0.925
C=C[C@@H](COC(C)=O)N(Cc1ccc([N+](=O)[O-])cc1)S(=O)(=O)c1ccc(Br)cc1 : 0.824
[N-]=[N+]=NCc1ccccc1C[C@]1(C(=O)NCC(O)CO)N=C(c2ccc(OCCCO)cc2)O[C@H]1c1ccccc1N=[N+]=[N-] (stereo partly drawn) : 32.2
C=CC[C@@]1(C(=O)NCC(O)CO)N=C(c2ccc(OCCCO)cc2)O[C@@H]1c1ccccc1N=[N+]=[N-] (stereo partly drawn) : 27.8
O=C(O)[C@H]1C[C@H]2C(=O)NCC(=O)N2[C@H]1c1ccc(O)cc1 : 0.898
CCCCCCc1nc(CCCc2cc3c(c(CCCCCC)n2)[Si](C(C)C)(C(C)C)OC3)cc2c1[Si](C(C)C)(C(C)C)OC2 : -1.07
COCCOC(=O)N1C(=O)[C@@]2(c3cc(C#CCCO)ccc31)[C@H](c1ccccc1OCCO)N1[C@H](c3ccccc3)[C@H](c3ccccc3)OC(=O)[C@H]1[C@@H]2C(=O)N1CCN(c2ncccn2)CC1 : 1.32
C=CCNC(=O)[C@@H]1[C@H]2C(=O)O[C@H](c3ccccc3)[C@H](c3ccccc3)N2[C@H](c2ccccc2OCCO)[C@@]12C(=O)Nc1ccc(C#CC3=CCCCC3)cc12 : -0.144
CC(C)C[C@@H]1NC(=O)[C@H]2C[C@@H](C(=O)NCCCCCNC(=O)CS)[C@@H](c3cccc(OCCO)c3)N2C1=O : 0.505

----------
- Test system: Sam68 (KHDRBS1)
- PROTOCOL TEXT: Sam68 small-molecule binders, primary screen, biochemical, small-molecule microarray, 635 nm fluorescence (AID 1125);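 note: score merges 667 nm channel intensity with signal to noise over triplicate slides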
- STATED CONDITIONS: small-molecule microarray binding, higher = more signal
READOUT: composite z-score

COc1ccc(NN2C(C(O)c3ccc(OC)c(OCc4ccccc4)c3)C=CC3C(=O)N(C4CCCCC4)C(=O)C32)cc1 (stereo not drawn) : 1.24
COC(=O)C[C@@H]1C[C@H](C)[C@]2(O1)C(=O)N(Cc1ccccc1)c1ccc(NC(C)=O)cc12 : -0.506
COc1ccc(C(=O)Nc2cccc(CN3C(=O)[C@@]4(O[C@@H](CCn5cc(CCO)nn5)[C@H]([Si](C)(C)c5ccc(OC)cc5)[C@H]4C)c4ccccc43)c2)cc1 : 1.3
CC(C)CNC(=O)[C@@H]1c2ccccc2C(=O)N(Cc2cc(C(F)(F)F)cc(C(F)(F)F)c2)[C@H]1c1ccc(CO)cc1 : -0.636
C=C(C(=O)CC[C@H](OC(C)=O)c1ccc(OCCO)cc1)C(C)C : 0.564
COC(=O)C1=CC(CCCO)=CC(C2CC2)N(Cc2sc3ccccc3c2Cl)C=C1C(=O)OC (stereo not drawn) : 1.3
O=C1[C@]2(CO)C=C(Br)[C@@H](C[C@@H]2c2ccccc2)[C@@]12CO2 : -0.566
COc1ccc([Si](C)(C)[C@@H]2[C@@H](CC(=O)N(CCO)Cc3ccccc3)O[C@]3(C(=O)N(C)c4ccccc43)[C@H]2C)cc1 : 1.31

----------
- SYSTEM: Streptavidin (Streptomyces avidinii) (UniProt P22629)
- Sequence (P22629 whole entry, looked up): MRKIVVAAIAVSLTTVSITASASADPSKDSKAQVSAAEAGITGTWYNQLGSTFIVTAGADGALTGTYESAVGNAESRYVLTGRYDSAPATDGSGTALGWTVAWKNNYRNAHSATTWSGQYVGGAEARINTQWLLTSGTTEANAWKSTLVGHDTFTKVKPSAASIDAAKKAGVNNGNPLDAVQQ
- PROTOCOL TEXT: streptavidin binders on small-molecule microarray, primary screen, artefact control for SMM compound annotation, biophysical, 635/667 nm fluorescence (AID 1147);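 note: signal reflects streptavidin binding to arrayed compounds as a control protein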
- STATED CONDITIONS: streptavidin binding, higher = more signal
Note to self: values exactly at 0.4 are T. So composite z-score at or above 0.4 is T, below is F.

[N-]=[N+]=NCc1ccccc1C[C@]1(C(=O)NCC(O)CO)N=C(c2ccc(OCCCO)cc2)O[C@H]1c1ccccc1N=[N+]=[N-] (some centres not stated) : F
CCOC(=O)C[C@H]1[C@H](OC(=O)c2ccc(-c3ccccc3)cc2)[C@@H](NC(=O)c2ccc(-c3ccccc3)cc2)c2cc(OCCCO)ccc2N1C(=O)Cc1ccc(OC)cc1 : T
COCCOC(=O)N1C(=O)[C@@]2(c3cc(C#CCC(C(=O)OC)C(=O)OC)ccc31)[C@H](c1ccccc1OCCO)N1[C@H](c3ccccc3)[C@H](c3ccccc3)OC(=O)[C@H]1[C@@H]2C(N)=O : F
CCN(CC)c1ccc(N2CC=CC34O[C@@H]5C=CCCOC(=O)C5[C@H]3C(=O)N(CCCCCO)[C@@H]4C2=O)cc1 (some centres not stated) : F
CCCCC=C[C@@H](NC(=O)c1cccs1)c1ccccc1 : T
C[C@H]1NC(=O)[C@H](Cc2ccccc2)NC(=O)[C@@]23C(=O)N[C@@H](Cc4ccccc4)C2[C@H](C)[C@@]2(C)O[C@H]2C3/C=C/C/C=C\CNC1=O (some centres not stated) : F
COCCOC(=O)N1C(=O)[C@@]2(c3ccccc31)[C@H](C(=O)NC[C@H](O)c1ccccc1)[C@H]1C(=O)O[C@H](c3ccccc3)[C@H](c3ccccc3)N1[C@@H]2c1ccc(OCCO)cc1 : F
O=c1cccc(CCc2ccccc2)o1 : F
C[C@]1(C(=O)NCc2ccccc2)c2ccccc2C(=O)N(Cc2cc(F)cc(C(F)(F)F)c2)[C@H]1c1ccc(CO)cc1 : F
O=C1O[C@@H](c2ccccc2)[C@@H](c2ccccc2)N2[C@@H](c3ccccc3OCCO)[C@]3(C(=O)Nc4ccc(C#CC5(O)CCCCCC5)cc43)[C@@H](C(=O)Nc3nc4ccccc4s3)[C@H]12 : T
Cc1ccccc1C(O)C1C=CC2C(=O)N(C)C(=O)C2N1Nc1ccccc1 (configuration not stated) : T
COC(=O)C(CC#Cc1ccc2c(c1)[C@]1(C(=O)N2)[C@H](c2ccc(OCCO)cc2)N2[C@H](c3ccccc3)[C@H](c3ccccc3)OC(=O)[C@H]2[C@@H]1C(=O)NC[C@H](O)c1ccccc1)C(=O)OC : T
COC(=O)[C@@]1(Cc2ccccc2)[C@H]2c3cc(C(=O)N4CCCC4)n(Cc4ccc(C)o4)c3C[C@H]2CN1C(=O)c1ccccc1 : T
COC(=O)[C@@]1(Cc2ccc(OC)cc2)[C@H]2c3cc(C(=O)N4CCCC4)n(Cc4cc(F)cc5c4OCOC5)c3C[C@H]2CN1C(=O)c1ccccc1 : T
CC(C)Cc1ccc(CN2CC[C@@H](NS(=O)(=O)c3ccccc3)C2)cc1 : F
CC(C)NC(=O)[C@@H]1c2ccccc2C(=O)N(Cc2ccccc2Cl)[C@H]1c1ccc(CO)cc1 : F
CCOc1cc(C(O)C2C=CC3C(=O)N(c4ccccc4)C(=O)C3N2Nc2ccc([N+](=O)[O-])cc2)ccc1O (configuration not stated) : T
[N-]=[N+]=NCc1ccccc1[C@@H]1OC(c2ccc(OCCCO)cc2)=N[C@]1(Cc1ccccc1N=[N+]=[N-])C(=O)NCc1ccccc1 : T
Cc1ccc(S[C@]2(C(=O)NC3CC3)CC(=O)N(Cc3ccccc3)[C@@H]2c2ccc(CO)cc2)cc1 : F
CCOC(=O)C[C@H]1[C@H](OC(=O)c2ccccc2-c2ccccc2)[C@@H](NC(=O)c2ccc3ccccc3c2)c2cc(OCCCO)ccc2N1C(=O)c1ccc2ccccc2n1 : F
COC(=O)C[C@H]1O[C@]2(C(=O)N(Cc3ccccc3)c3ccc(NC(C)=O)cc32)[C@@H](C)[C@@H]1[Si](C)(C)c1ccc(OC)cc1 : F
COC(=O)c1ccc(C(O)C2C=CC3C(=O)N(c4ccccc4)C(=O)C3N2Nc2ccc(C#N)cc2)o1 (configuration not stated) : F
CC(C)N1C(=O)[C@@]2(c3ccc([N+](=O)[O-])cc3)CC(=O)N(CC34CC5CC(CC(C5)C3)C4)[C@@H]2c2ccc(CO)cc21 : F
CC(C)C[C@@H]1NC(=O)[C@H]2C[C@@H](C(=O)NCCCCCCNC(=O)CS)[C@@H](c3cccc(OCCO)c3)N2C1=O : F
COCCOC(=O)N1C(=O)[C@@]2(c3cc(C#Cc4ccc(OC)cc4)ccc31)[C@H](C(=O)N1CCN(c3ncccn3)CC1)[C@H]1C(=O)O[C@H](c3ccccc3)[C@H](c3ccccc3)N1[C@@H]2c1ccc(O)cc1 : F
COC(=O)[C@@]1(Cc2ccccc2N=[N+]=[N-])COC(c2ccc(OCCCO)cc2)=N1 : F

All figures here come from PubChem BioAssay.
